system: HCC-2998 colon; experiment: NCI-60 one-dose screen, 48 h; conditions: 10 µM unless noted
About 83,000 compounds went through this panel and 20% of them were active in at least one assay; those are over-represented in the sample as a whole. Activity calls are given as the source filed them. The calls were made as follows: active = growth percent below 10; inactive = the rest.
Can you answer with just one of these options? active, inactive

{"compound": "CC(/C=C1\\SC(=S)N(CC(=O)NC(Cc2c[nH]c3ccccc23)C(=O)O)C1=O)=C\\c1ccccc1 (centres undefined)", "group-label": "inactive"}
{"compound": "COc1ccc2c(c1)c(-c1nc(-c3cn(C)c4ncccc34)cs1)cn2CCO", "group-label": "inactive"}
{"compound": "COc1ccc(/C(C)=C(\\c2ccc(Cl)cc2)c2ccc(OCCN3CCCC3)cc2)cc1", "group-label": "inactive"}
{"compound": "Cc1ccc2nc(Cl)c(Cn3nnnc3SCc3ccccc3)cc2c1", "group-label": "inactive"}
{"compound": "CCN(CC)CCCC(C)Nc1ccc2cc(OC)ccc2n1 (centres undefined)", "group-label": "inactive"}
{"compound": "O=S(=O)(c1ccccc1)N1CCCN(c2nc(-c3ccccc3)nc3nc(-c4ccccc4)oc23)CC1", "group-label": "inactive"}
{"compound": "COc1cc(C(=O)c2c(N)ncn2-c2ccccc2)cc(OC)c1OC", "group-label": "inactive"}
{"compound": "CCCCCCOC(=O)CC1=C(C)/C(=C/c2[nH]c(-c3ccc[nH]3)cc2OC)N=C1C", "group-label": "active"}

What outcome does the record of this test show for Cc1[nH]c(C(=O)Nc2ccc(C(N)=O)cc2NC(C)C)c(Cl)c1Cl ?
inactive

Which outcome was entered for the compound CCCCNC1=C(OCC)C(=O)c2ccccc2C1=O in this test?
inactive

Hi team, can someone confirm the assay call for COc1ccc(C2=NN(C(C)=O)C(c3ccc(Oc4ccnc5cc(Cl)ccc45)c(OC)c3)C2)cc1 (centres undefined) ?
inactive

Name the outcome recorded for CC(=O)c1cc(-c2ccccc2N)n(-c2ccc3c(c2)OCO3)c1C in the assay.
inactive

Could you check what this test reported for O=[N+]([O-])/C(=C\c1ccco1)c1ccccc1Cl ?
inactive

Which outcome was assigned to N=C(N)c1ccc(-c2ccc(-c3ccc(F)cc3)s2)s1 in this test?
active

Each compound tested received a call. Report the one for COc1ccc(C(C)=O)cc1S(N)(=O)=O .
inactive

Called result for C#CCn1cnc2c(Nc3cccc(NC(=O)CCl)c3)ncnc21
inactive

Could you kindly confirm the outcome this assay logged for O=C1/C(=C/c2ccc(C(F)(F)F)cc2)COc2ccc(O)c(O)c21 ?
active

Called result for C[C@@H]1CC[C@@]2(OC1)O[C@H]1C[C@H]3[C@@H]4CC=C5C[C@@H](O[C@@H]6O[C@H](CO)[C@@H](O[C@@H]7O[C@@H](CO)[C@H](O)[C@H]7O)[C@H](O)[C@H]6O[C@@H]6O[C@@H](C)[C@H](O)[C@@H](O)[C@H]6O)CC[C@]5(C)[C@H]4CC[C@]3(C)[C@H]1[C@@H]2C
active

Returns: the outcome recorded for Cc1[nH]c(/C=C/C(=O)c2ccc(C(F)(F)F)c(F)c2)c(C)c1C(=O)NCC(C)C in this assay.
inactive

The reported numbers originate from PubChem BioAssay (NCI).
